test-name: chemical genetic growth profiling, strain panel (AID 1159580);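 also: tested at 20 µM; growth read once vehicle control cultures reached saturation at 30 °C; lower values mean less growth of the strain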
experimental-parameters: S. cerevisiae deletion strains, growth OD, locus YER155C, strain BEM2
The whole screen tested about 5,500 compounds, of which about 2,000 (36%) were called active. Another 18% or so got no clear call; they are omitted. Rule as the data show it: active = normalized growth mostly below about 0.91 (no sharp cut-off); inconclusive = no clear call, values can overlap the other calls; inactive = mostly above about 0.92. This is one part of the list.
Choose one outcome from this list and give only that: active, inactive

>>> print(df.to_string())
                         compound  label_class
0  O=C(O)c1cc2cc(Cc3cccnc3)ccc2o1     inactive

## Task What outcome does the record of this test show for C=C1C(C)C2C(Cc3ccccc3)NC(=O)C23OC(=O)/C=C/C(O)CCCC(C)C/C=C/C3C1O (stereo not drawn) ?
## Result inactive

## Task What outcome does the record of this test show for C=C1C(C)C2C(Cc3ccccc3)NC(=O)C23OC(=O)/C=C/C(=O)CCCC(C)C/C=C/C3C1O (stereo not drawn) ?
## Result inactive

## Task What outcome does the record of this test show for CCCCCCOc1ccccc1C(N)=O ?
## Result active

## Task What outcome does the record of this test show for C[N+]1(C)C2CC(OC(=O)[C@@H](CO)c3ccccc3)CC1C1OC12 (stereo partly drawn) ?
## Result inactive

## Task What outcome does the record of this test show for O=C(Cn1ccnc1[N+](=O)[O-])NCCO ?
## Result inactive

## Task What outcome does the record of this test show for C#CCCCCCCCCCCCC(=O)CC(O)COC(C)=O (stereo not drawn) ?
## Result active

## Task What outcome does the record of this test show for NC(CO)C(=O)NNCc1ccc(O)c(O)c1O (stereo not drawn) ?
## Result inactive

## Task What outcome does the record of this test show for CCCCN1CCCCC1C(=O)Nc1c(C)cccc1C (stereo not drawn) ?
## Result inactive

## Task What outcome does the record of this test show for CCCCOC(=O)c1ccc(N)cc1 ?
## Result inactive

## Task What outcome does the record of this test show for CCOC(=O)[C@H](CCc1ccccc1)N[C@@H](C)C(=O)N1[C@H](C(=O)O)C[C@@H]2CCC[C@@H]21 ?
## Result inactive

## Task What outcome does the record of this test show for COC(=O)C1=CCCN(C)C1 ?
## Result inactive

## Task What outcome does the record of this test show for COc1cc(-c2coc3cc(OCc4ccccc4)c(OC)c(O)c3c2=O)cc(O)c1OC ?
## Result inactive

## Task What outcome does the record of this test show for CC(C)[C@@H]1CC[C@@H](C)C[C@H]1O ?
## Result inactive

## Task What outcome does the record of this test show for Cn1c(=O)c2[nH]cnc2n(C)c1=O ?
## Result inactive

## Task What outcome does the record of this test show for CO/N=C(\C(=O)N[C@@H]1C(=O)N2C(C(=O)O)=C(CSc3nc(=O)c(O)nn3C)CS[C@H]12)c1csc(N)n1 ?
## Result inactive
